molecular target: HIV-1 Env of pseudovirus isolate MGRM-G-006 (subtype G) (HIV-1); test: cell-based or functional assay
READOUT LABEL: IC50

PGT-125 (antibody, V domains shown) VH: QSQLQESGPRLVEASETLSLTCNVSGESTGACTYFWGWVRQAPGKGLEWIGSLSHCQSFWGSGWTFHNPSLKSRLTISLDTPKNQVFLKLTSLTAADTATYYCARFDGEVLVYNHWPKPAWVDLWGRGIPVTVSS VL: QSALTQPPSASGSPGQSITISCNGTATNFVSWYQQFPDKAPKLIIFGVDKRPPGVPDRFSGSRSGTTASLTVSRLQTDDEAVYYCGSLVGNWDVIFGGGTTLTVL: > 50 µg/mL
